- system.under.test: Nuclear receptor subfamily 1 group I member 2 (Homo sapiens)
- assay.remarks: Human pregnane X receptor (PXR) activation by small molecules, qHTS assay (AID 1346985); also: nearly all actives have a fitted effect of over 40% in size
- experimental.parameters: DPX-2 HepG2 CYP3A4-luciferase, 24 h; series mostly up to 38.3 µM
- Description: National Center for Advancing Translational Sciences [NCATS] NIH Chemical Genomics Center [NCGC] U.S. Environmental Protection Agency [EPA] National Institutes of Environmental Health Sciences [NIEHS] National Toxicology Program [NTP] The Pregnane X receptor (PXR), a ligand activated nuclear receptor plays a critical role in the regulation of genes involved in drug metabolism and transporters. Activation of PXR may be involved in the unwanted adverse drug-drug interactions. […]
Records with an inconclusive call do not appear. Activity calls are given as the source filed them. Calls follow the shape of the dose curve; as a rule, active = well fitted activation curve with a large enough effect in the repeat runs; inconclusive = weak or mixed curves; inactive = flat fitted curve, though single readings scatter.
Give your call using only these classes: 1 (yes) (active), 0 (no) (inactive)

Could you check what this test reported for O=C1c2c(O)cccc2[C@H]([C@@H]2O[C@H](CO)[C@@H](O)[C@H](O)[C@H]2O)c2cc(CO)cc(O)c21 ?
0 (no)

What is the recorded call for this compound in the test? CC1(C)CCC(NC(=O)[C@@H](N)CCC(=O)O)CC1
0 (no)

Write down the call the test reported for this compound. Item: CCN(CC)C(=O)c1cccnc1
0 (no)

Answer briefly: the call reported for CC1(C)S[C@@H]2[C@H](NC(=O)[C@H](N)c3ccc(O)cc3)C(=O)N2[C@H]1C(=O)O in this assay.
0 (no)

Recorded call for CCC(NC(C)C)C(O)c1ccc(O)c(O)c1 (stereo not given) ?
0 (no)

Look up the recorded call for N[C@H](CO)C(=O)O in this test.
0 (no)

Please share the test call associated with C[S+](CC[C@H](N)C(=O)O)C[C@H]1O[C@@H](n2cnc3c(N)ncnc32)[C@H](O)[C@@H]1O (stereo not given in full) .
0 (no)

Dear all, I need the recorded test outcome for CNC(=O)C[C@@H](N)C(=O)N[C@@H](C(=O)N[C@@H]1C(=O)N2[C@@H]1SC(C)(C)[C@@H]2C(=O)O)c1ccc(O)cc1 , thank you.
0 (no)

Query: recorded result category for CCC(O)c1ccccc1 (stereo not given) in this test
0 (no)

For CC/C=C\C/C=C\C/C=C\C/C=C\C/C=C\CCCC(=O)O , what call appears in the results of this test?
0 (no)

Could you check what this test reported for O=S(=O)(O)CC(S)CS (stereo not given) ?
0 (no)

I would be grateful if you could indicate the recorded call for CC1CCCCN1CCCOC(=O)c1ccccc1 (stereo not given) .
0 (no)

Test call, this compound: CC(CNC(=O)c1cccnc1)NC(=O)c1cccnc1 (stereo not given)
0 (no)

Record request — test call for Cc1ccc(C(C)(C)c2ccc(C)cc2)cc1
0 (no)

Recorded call for C=C1C(CCl)(CCl)C2(Cl)C(Cl)C(Cl)C1(Cl)C2(Cl)Cl (stereo not given) ?
1 (yes)

Tell me the recorded outcome of this test for NS(=O)(=O)c1cc(Cl)c(Cl)c(S(N)(=O)=O)c1 .
0 (no)

State the result this test recorded for COc1cc2c(cc1O)CCN[C@]21CS[C@@H]2c3c(OC(C)=O)c(C)c4c(c3[C@H](COC1=O)N1[C@@H]2[C@H]2c3c(cc(C)c(OC)c3O)C[C@@H]([C@@H]1O)N2C)OCO4 .
0 (no)

Outcome? O=C(O)[C@@H]1C[C@H](CP(=O)(O)O)CCN1
0 (no)

// outcome(item) with item = Cc1cn([C@H]2C[C@H](O)[C@@H](CO)O2)c(=O)[nH]c1=O
0 (no)

For this compound, state the assay outcome: OCl
0 (no)

// return assay outcome for Cc1cc(-c2ccc(N=Nc3ccc4c(S(=O)(=O)O)cc(S(=O)(=O)O)c(N)c4c3O)c(C)c2)ccc1N=Nc1ccc2c(S(=O)(=O)O)cc(S(=O)(=O)O)c(N)c2c1O
0 (no)

What classification did CCCCCCCCCCCCCCCCCCOCC(COP(=O)([O-])OCC[N+](C)(C)C)OC (stereo not given) end up with in this test?
0 (no)

So what was the verdict on FC(F)(F)C(F)(F)C(F)(F)C(F)(F)C(F)(F)F in this test?
0 (no)

Each compound tested received a call. Report the one for CC(=O)NC[C@H]1CN(c2ccc(N3CCOCC3)c(F)c2)C(=O)O1 .
0 (no)

Dear all, I need the recorded test outcome for Nc1nc(/C(=C/CC(=O)O)C(=O)N[C@@H]2C(=O)N3C(C(=O)O)=CCS[C@H]23)cs1 , thank you.
0 (no)

Could you kindly confirm the outcome this assay logged for CC(C)=CCC/C(C)=C/CC/C(C)=C/CC/C=C(\C)CC/C=C(\C)CCC=C(C)C ?
0 (no)

What did this assay record as the result for CN[C@@H]1[C@@H](O[C@H]2O[C@H](CO)[C@@H](N)[C@H](O)[C@H]2O)O[C@H]2C[C@@H](N)[C@@H](O[C@H]3[C@H](O)[C@@H](O)[C@H](N)C[C@@H]3N)O[C@@H]2[C@@H]1O ?
0 (no)

What is the recorded call for this compound in the test? O=C1C2CC3CC1CC(O)(C3)C2
0 (no)

Recorded test call requested for CO/N=C(\C(=O)N[C@@H]1C(=O)N2C(C(=O)O)=C(CSc3nc(C)c(CC(=O)O)s3)CS[C@H]12)c1csc(N)n1
0 (no)

Name the outcome recorded for O=C(CCN1CCC(c2ccccc2)C1)c1ccc2c(c1)OCCO2 (stereo not given) in the assay.
0 (no)

Hi, sorry to bother you, what did the test record for O=C1CCC(c2ccccc2)(C2CCN(Cc3ccccc3)CC2)C(=O)N1 (stereo not given) ?
1 (yes)

Which outcome did this test record for the compound CC(=O)[C@]1(O)Cc2c(O)c3c(c(O)c2[C@@H](O[C@H]2C[C@H](N)[C@H](O)[C@H](C)O2)C1)C(=O)c1ccccc1C3=O ?
0 (no)

In this assay, the call recorded for O=c1[nH]c(=O)n([C@H]2C[C@H](O)[C@@H](CO)O2)cc1/C=C/Br was what?
0 (no)

Give the logged outcome of this assay for the following compound: CCCCCCCCCCCCCC(=O)OCC(COP(=O)([O-])OCC[N+](C)(C)C)OC(=O)CCCCCCCCCCCCC (stereo not given)
0 (no)

Dear colleague, could you share the recorded outcome for Cc1cc(N)c2ccccc2[n+]1CCCCCCCCCC[n+]1c(C)cc(N)c2ccccc21 when you have a moment?
0 (no)

# lookup: test call for COc1cc(/C=C/C(=O)CC(=O)/C=C/c2ccc(O)c(OC)c2)ccc1O
0 (no)

State the result this test recorded for COc1c(O)cc2c(c1O)[C@@H]1O[C@H](CO)[C@@H](O)[C@H](O)[C@H]1OC2=O .
0 (no)

What call does the record list for CC/C(=C(/CC)c1ccc(OP(=O)(O)O)cc1)c1ccc(OP(=O)(O)O)cc1 ?
0 (no)

Dear all, I need the recorded test outcome for NC(N)=NCc1cccc(I)c1 , thank you.
0 (no)

Lab log entry: CCCCCCOC(=O)c1cccnc1 — outcome as called in the assay?
0 (no)
